- ASSAYED TARGET: T1, CRBN, Q96SW2;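 note: pooled lentiviral library of zinc finger degron-EGFP fusions in mCherry-positive Jurkat cells, FACS-sorted after compound exposure, with degron abundance counted by next-generation sequencing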
- T1 chain: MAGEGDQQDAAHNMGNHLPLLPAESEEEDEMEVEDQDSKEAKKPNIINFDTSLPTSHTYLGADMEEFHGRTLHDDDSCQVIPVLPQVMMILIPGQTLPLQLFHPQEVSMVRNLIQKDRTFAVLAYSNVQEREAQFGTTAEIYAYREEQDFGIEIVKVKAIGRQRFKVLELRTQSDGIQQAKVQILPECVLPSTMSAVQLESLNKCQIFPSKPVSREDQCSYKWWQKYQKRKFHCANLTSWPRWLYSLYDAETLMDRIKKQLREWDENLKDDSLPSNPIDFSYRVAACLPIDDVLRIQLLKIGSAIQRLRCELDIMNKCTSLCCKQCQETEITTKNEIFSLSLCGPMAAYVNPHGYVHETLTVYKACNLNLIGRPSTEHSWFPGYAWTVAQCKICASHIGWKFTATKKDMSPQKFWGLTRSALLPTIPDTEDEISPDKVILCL
- ASSAY OVERVIEW: log2 fold change of degron read counts, EGFP-low vs EGFP+ sorted cells (limma voom), compound-induced degradation; higher = more compound-induced degradation of the degron-EGFP fusion; degrons are variants of IKZF1/3 zinc finger 2; compound dose not given here
- MEASUREMENT CONDITIONS: Jurkat; 18 h; compound: compound 22 (5-morpholino-thalidomide)
The full ranking holds about 8,300 sequences; the median of “log2 fold change of degron read counts, EGFP-low vs EGFP+ sorted cells (limma voom), compound-induced degradation” is about -1.1, and the highest 2% start at about 3.2. The entries come from a sample that favours the highest values as a whole.
Please provide measured log2 fold change of degron read counts for the entries that follow.
Answer with a bare number; do not write a unit.

**Query** I have this sequence here, FTCEICGATFTQKGNLLRHIKL [46F_47T_49E_50I_52G_53A_54T_55F_67L_, Q9UKT9] , and I need its recorded log2 fold change of degron read counts.
**Result** 2.27

**Query** What would you report for FTCPVCGAQFTQKGNLLRHIKL [46F_47T_49P_50V_52G_53A_54Q_55F_67L_, Q9UKT9] ?
**Result** 2.63

**Query** Could you do the same for FRCDICGAHFTQKGNLLRHIKL [46F_47R_49D_50I_52G_53A_54H_55F_67L_, Q9UKT9] , please?
**Result** -1.53

**Query** What do you have for FYCEICGATFTQKGNLLRHIKL [46F_47Y_49E_50I_52G_53A_54T_55F_67L_, Q9UKT9] ?
**Result** 4.05

**Query** Entry to check: FQCPVCGATFTQKGNLLRHIKL [46F_47Q_49P_50V_52G_53A_54T_55F_67L_, Q9UKT9]
**Result** 2.89

**Query** Would you mind doing FVCDQCGAEFTQKGNLLRHIKL [46F_47V_49D_50Q_52G_53A_54E_55F_67L_, Q9UKT9] as well?
**Result** -2.35

**Query** Here is the next sequence: FVCPVCGATFTQKGNLLRHIKL [46F_47V_49P_50V_52G_53A_54T_55F_67L_, Q9UKT9]
**Result** 1.27
